Measured viability at 28.5 h, 10 µM of individual entries
- testName: in vitro
- experimentalSetup: human, hela cells, % viability
Report only the number, with the unit % understood.

CC(Cn1cncn1)C(=O)N1CCc2sccc2C1C (stereo not shown)	106
COc1ccc(N)cc1OCc1cn2ccccc2n1	57.2
Cc1ncc(CN(C)C(C)C(=O)Nc2ccccc2N2CCCC2=O)s1 (stereo not shown)	92
CCC(=O)N1CCCC1c1nc(C)c2c(n1)N(Cc1ccc(F)cc1)CCC2 (stereo not shown)	104
O=C(COc1cccc2ccccc12)NNC(=O)C1CCCO1 (stereo not shown)	89.7
CCCc1ccc(C(C)NC(=O)C2CC2C)cc1 (stereo not shown)	82.4

Switching to the query record.
## Task # query: viability at 28.5 h, 10 µM of entry "O=C(NCc1cccs1)c1ccc(-c2ccoc2)nc1"
## Result 106

----------
- testName: in vitro
- experimentalSetup: human, hela cells, % viability
experimentalEndpoint: viability at 28.5 h, 10 µM (%)
Answer format: numeric, % implied, no suffix.

See these solved cases before continuing.
Cc1cc(C(=O)NC2CCCC2)n[nH]1 [CBK200240]	94.2
CC(/C=C/c1ccccc1)=N\NC(=O)C(C)Oc1ccc(Br)cc1 (centres unmarked) [CBK261212]	99.7
COc1ccccc1-c1nccnc1OC(c1ccccc1)c1ccccc1 [CBK106813]	93.8
O=C(C1=C(O)C(=O)N(CCCN2CCOCC2)C1c1cccnc1)c1cccs1 (centres unmarked) [CBK264555]	113

# context switch: different compound, same viability at 28.5 h, 10 µM
## Task So what does the record say about viability at 28.5 h, 10 µM for COc1ccc(-n2c(SCC(=O)c3ccccc3)nc(O)c(Cc3ccccc3)c2=O)cc1 [CBK263398] ?
## Result 97.7

----------
- testName: in vitro
- experimentalSetup: human, hela cells, % viability
experimentalEndpoint: viability at 28.5 h, 10 µM (%)
State just the number; it will be interpreted in %.

CCc1ccc2c(c1)C(CCNC(=O)c1sccc1C)C(=O)N2 (stereo not shown) [CBK306459]	88.5

## Task I am curious: what viability at 28.5 h, 10 µM value has been reported for COc1cc(CNS(=O)(=O)c2cc3c(NCCN(C)C)nccc3s2)cc(OC)c1OC [CBK038246C] ?
## Result 91.8

## Task Another: O=S(=O)(NCc1ccc(F)cc1Cl)c1ccc(Cl)c(Cl)c1 [CBK043785]
## Result 91

## Task Now the compound COc1ccc(Cn2nc(NC(=O)Nc3ccc(N(C)C)cc3)c3ccccc32)cc1 [CBK048529]
## Result 90

----------
- testName: in vitro
- experimentalSetup: human, hela cells, % viability
experimentalEndpoint: viability at 28.5 h, 10 µM (%)
Write the value in % as a bare number.

Check out these entries, answers already filled in.
CC(COC(C)(C)C)Oc1nccnc1OCc1ccc(Cl)c(Cl)c1 (stereo not drawn) [CBK161607]	113
CCCCOc1ccc(C(N)CC(=O)O)cc1 (stereo not drawn) [CBK262915]	86.8
OCC(CNc1ncnc2nc[nH]c12)Cc1ccccn1 (stereo not drawn) [CBK304412]	83.4
O=C(c1cc(-c2ccc(Cl)cc2)[nH]n1)N1CCNCC1 [CBK116548]	99.5
Nc1nnc(SCC(=O)NCc2ccc3c(c2)OCO3)s1 [CBK267853]	101

## Task Look at this molecule and give its reported viability at 28.5 h, 10 µM. O=C(Nc1ccc(NC(=O)Nc2cccc(Cl)c2)cc1)Nc1cccc(Cl)c1 [CBK267623]
## Result 93.9

## Task What about this molecule? O=C(NCC1CCCCC1)N1CCN(c2cc(C(F)(F)F)ccn2)CC1 [CBK162323]
## Result 103

## Task Also Fc1ccc(-c2c[nH]nc2C2CCOCC2)cc1 [CBK283464] , if possible.
## Result 103

## Task Moving on to Cc1oc(-c2ccccc2)cc1C(=O)NCc1ccc(OC2CCNCC2)cc1 [CBK038915T]
## Result 108

## Task Same for COC(=O)Nc1ccc2c(c1)N(C(=O)CCN1CCN3CCCC3C1)c1ccccc1CC2 (stereo not drawn) [CBK278220C]
## Result 93.1

## Task Could you do the same for COc1cc(/C=N/c2cccc3c(/N=C/c4ccc(O)c(OC)c4)cccc23)ccc1O [CBK261224] , please?
## Result 85.8

## Task And then FC(F)(F)c1nnc2ccc(N3CCN(Cc4ccsc4)CC3)nn12 [CBK305930] , what is it?
## Result 88.6

## Task Try the molecule CCN(Cc1ccncc1)C(=O)NCCCSC [CBK155125]
## Result 88.8

## Task Continue with CC1CCc2c(sc3ncnc(NCCCN4CCCCCC4=O)c23)C1 (stereo not drawn) [CBK305947]
## Result 85.4

## Task What about this molecule? COC(C)(C)C(=O)N1CCCC(c2ccc(Cc3cccc(C(F)(F)F)c3)cn2)C1 (stereo not drawn) [CBK286124]
## Result 107

## Task Same read-out for Cc1ccc(OCC(O)CN(C)S(=O)(=O)O)c([N+](=O)[O-])c1 (stereo not drawn) [CBK262062K] ?
## Result 85.3

## Task Further, for O=C(Nc1ccc(-c2nc3ccccc3o2)c(O)c1)c1ccc(-c2cccc(Cl)c2)o1 [CBK263422] ?
## Result 95.4

## Task Same for COc1ccc(-c2nc(NC(=O)Cc3ccc(S(C)(=O)=O)cc3)cnc2-c2cccc(C)c2)cc1 [CBK037525]
## Result 88.2

## Task Try Cn1cc(NC(=O)CCn2c(C(F)(F)F)cc3cccnc32)cn1 [CBK284866] next.
## Result 92.5

## Task Similarly, COC(=O)c1cccn2cc(CN3CCOC4CCCCC43)nc12 (stereo not drawn) [CBK304949] ?
## Result 106

## Task Request: Cc1nc(CCNC(=O)N(Cc2ccsc2)C2CC2)nc2c1CCCC2 [CBK307674]
## Result 88.5

## Task Field entry: CN1CCCc2c1nc1ccc(Br)cc1c2N [CBK009692G]
## Result 58.9

## Task And N#CCCCN1CCC(Oc2nccnc2OCc2cccc3ccccc23)CC1 [CBK161571] ?
## Result 99.3

## Task How about this molecule: CN1CCc2c(c(NCC3CCCO3)nc3[nH]nc(N)c23)C1 (stereo not drawn) [CBK287955]
## Result 103

----------
- testName: in vitro
- experimentalSetup: human, hela cells, % viability
viability at 28.5 h, 10 µM reference
Answer with a number only, understood to be in %.

Worked cases, answers included:
C[C@H](Nc1nc(-c2cccc(-c3ccccc3)c2)cnc1N)c1ccccc1	94.5
CCOC(=O)c1c(NC(=O)CC2Sc3ccccc3NC2=O)sc(C)c1C (stereo not shown)	93.5
CCCC(=O)N(C)C(CO)c1cc(OC)ccc1Br (stereo not shown)	95.4
CC(C)(C)CC(=O)O/N=C(\N)c1ccccn1	105
OCCN(CCO)c1cncc(-c2cccc3ccccc23)n1	84.5
c1ccc(CN2CC[C@H](c3nc4ncccc4[nH]3)C2)cc1	106
C=C(C)c1cccc(C(C)(C)NC(=O)N2CCC(C(=O)NC(c3ccc(OC)nc3)c3ccccc3C)CC2)c1 (stereo not shown)	92.2
Cc1nn(C)c(Cl)c1S(=O)(=O)Nc1nnc(C(F)(F)F)s1	92

Consider the additional compound presented here.
## Task Fill blank: measured viability at 28.5 h, 10 µM of the compound "O=C(Cn1c(-c2cccs2)n[nH]c1=S)N1CCC(c2nc3cc(Cl)ccc3o2)CC1" is ____.
## Result 95

----------
- testName: in vitro
- experimentalSetup: human, hela cells, % viability
viability at 28.5 h, 10 µM reference
Response body: numeric value in %, unit text excluded.

Some solved entries appear below for comparison.
O=C(Cn1cnc2c(cnn2-c2ccc(F)cc2)c1=O)NCc1ccccc1	93.1
Cc1ccc(-c2ccc(CCC(=O)O)n2N=C(N)S)cc1	91

## Task Field request: viability at 28.5 h, 10 µM | item: "Cc1cccc(-c2cn3ccnc3c(N3CCN(c4ccccn4)CC3)n2)c1"
## Result 89.3

## Task Same for COc1ccc(-c2nnc(SCC(=O)c3ccc(F)cc3)n2C2CCCCC2C)cc1 (stereo not drawn)
## Result 89.8

## Task Also "O=C1COc2ccccc2CCCC[C@@H]2CNCC[C@H]2N1" ?
## Result 105

## Task // next record "CCOC(=O)C1(C2CCCCC2)CCN(C(=O)C(c2ccccc2)c2ccccc2)CC1"
## Result 106

## Task Ok, now "c1cncc(Nc2cccc(-c3ccco3)n2)c1"
## Result 100

## Task Would you mind doing "COc1ccc(-c2csc(NC(=O)NS(=O)(=O)c3ccc(C)cc3)n2)cc1" as well?
## Result 88

## Task Repeat for the following molecule: "COc1cccc(CN2CCN(C(=O)c3ccco3)CC2)c1OC"
## Result 87.4

Just for reference, paper PMC12040169 is where these values come from.
